Overview of reported percent inhibition of viability across a group of compounds:
system: normal primary NK cells, pool 2 (3 donors) (IL-2 2.5 ng/mL); assay: percent inhibition of viability; higher = more inhibition; conditions: 72 h; 10 nM;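 note: normalised to DMSO-only wells as negative and benzethonium chloride as positive control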
Write the answer as a number in %, unit excluded.

Examples with their reported percent inhibition of viability follow.
CCC1(c2ccc(N)cc2)CCC(=O)NC1=O (configuration not stated) [Aminoglutethimide] (max concentration tested 10000 nM) :: 3.88
C=CCn1c(=O)c2cnc(Nc3ccc(N4CCN(C)CC4)cc3)nc2n1-c1cccc(C(C)(C)O)n1 [MK1775] (max concentration tested 10000 nM) :: -7.74
COc1cc(CCc2cc(NC(=O)c3ccc(N4CC(C)NC(C)C4)cc3)n[nH]2)cc(OC)c1 (configuration not stated) [AZD4547] (max concentration tested 1000 nM) :: 5.78

Incoming: Dear colleague, I am looking for the recorded percent inhibition of viability of the following compound: CC1(COc2ccc3c(c2)ncn3-c2ccc3cccc(N4CCC(N)CC4)c3n2)COC1 [Crenolanib] (max concentration tested 10000 nM)
Outgoing: -6.62

Incoming: Another compound to check: CCCCCCCCc1ccc(CCC(N)(CO)CO)cc1 [Fingolimod] (max concentration tested 10000 nM)
Outgoing: -6.36

Incoming: Another compound to check: CO[C@H]1C[C@@H]2CC[C@@H](C)[C@@](O)(O2)C(=O)C(=O)N2CCCC[C@H]2C(=O)O[C@H]([C@H](C)C[C@@H]2CC[C@@H](OCCO)[C@H](OC)C2)CC(=O)[C@H](C)/C=C(\C)[C@@H](O)[C@@H](OC)C(=O)[C@H](C)C[C@H](C)/C=C/C=C/C=C/1C [Everolimus] (max concentration tested 100 nM)
Outgoing: 5.73

Incoming: Another compound to check: Cc1cccc(-c2nn3c(c2-c2ccnc4ccc(C(N)=O)cc24)CCC3)n1 [Galunisertib] (max concentration tested 1000 nM)
Outgoing: -11.5

Incoming: Another compound to check: CC(C)NC[C@@H](C(=O)N1CCN(c2ncnc3c2[C@H](C)C[C@H]3O)CC1)c1ccc(Cl)cc1 [Ipatasertib] (max concentration tested 10000 nM)
Outgoing: -4.37

Incoming: Another compound to check: CN(N=O)C(=O)N[C@@H](C=O)[C@@H](O)[C@H](O)[C@H](O)CO [Streptozocin] (max concentration tested 10000 nM)
Outgoing: -2.41

Incoming: Another compound to check: COC(=O)N[C@@H](C)CNc1nccc(-c2cn(C(C)C)nc2-c2cc(Cl)cc(NS(C)(=O)=O)c2F)n1 [Encorafenib] (max concentration tested 1000 nM)
Outgoing: -1.97

Incoming: Another compound to check: O=C(NC[C@H](O)CO)c1ccncc1Nc1ccc(I)cc1F [Pimasertib] (max concentration tested 10000 nM)
Outgoing: 1.34

Incoming: Another compound to check: CC[C@]1(O)C[C@H]2CN(CCc3c([nH]c4ccccc34)[C@@](C(=O)OC)(c3cc4c(cc3OC)N(C=O)[C@H]3[C@@](O)(C(=O)OC)[C@H](OC(C)=O)[C@]5(CC)C=CCN6CC[C@]43[C@@H]65)C2)C1 [Vincristine] (max concentration tested 1000 nM)
Outgoing: 16.4
